target: Short transient receptor potential channel 4 (Mus musculus) (UniProt Q9QUQ5); test: blockers of DAMGO-evoked TRPC4 calcium flux – cell-based, second round, Fluo4, HEK293 TRPC4beta/mu-opioid, 1 µM, confirmation (AID 2637); details: at 1 µM
Sequence (Q9QUQ5 whole entry, looked up): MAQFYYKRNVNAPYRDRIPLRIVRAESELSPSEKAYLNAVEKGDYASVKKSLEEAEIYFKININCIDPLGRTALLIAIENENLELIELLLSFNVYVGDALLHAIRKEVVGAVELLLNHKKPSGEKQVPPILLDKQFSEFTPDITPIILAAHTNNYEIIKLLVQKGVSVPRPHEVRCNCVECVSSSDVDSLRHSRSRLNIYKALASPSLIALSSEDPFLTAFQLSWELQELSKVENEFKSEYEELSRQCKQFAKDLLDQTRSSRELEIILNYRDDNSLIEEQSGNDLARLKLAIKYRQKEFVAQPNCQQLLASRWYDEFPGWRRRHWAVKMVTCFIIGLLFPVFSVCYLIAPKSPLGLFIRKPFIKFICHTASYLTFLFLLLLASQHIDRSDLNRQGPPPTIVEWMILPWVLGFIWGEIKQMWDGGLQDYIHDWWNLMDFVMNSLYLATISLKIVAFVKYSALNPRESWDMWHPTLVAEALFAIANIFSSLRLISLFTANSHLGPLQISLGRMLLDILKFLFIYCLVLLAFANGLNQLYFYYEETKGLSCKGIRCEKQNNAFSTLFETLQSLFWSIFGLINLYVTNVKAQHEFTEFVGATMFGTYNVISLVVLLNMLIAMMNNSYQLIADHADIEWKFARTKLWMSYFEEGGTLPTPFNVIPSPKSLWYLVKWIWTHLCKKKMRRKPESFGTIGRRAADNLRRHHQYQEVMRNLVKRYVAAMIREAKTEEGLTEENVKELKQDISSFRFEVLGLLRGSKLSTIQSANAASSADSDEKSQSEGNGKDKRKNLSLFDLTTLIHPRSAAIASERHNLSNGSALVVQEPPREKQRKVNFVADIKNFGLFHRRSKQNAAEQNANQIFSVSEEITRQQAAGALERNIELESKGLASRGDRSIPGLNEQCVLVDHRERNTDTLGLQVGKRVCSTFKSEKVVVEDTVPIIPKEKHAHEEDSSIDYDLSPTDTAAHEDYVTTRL
Calls of active or inactive are those of the source.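 How the source made its calls: active means calcium signal ratio cut to more than 3 SD under the fully stimulated control mean yet still positive, in both repeats and the primary screen; inactive means the rest.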
Choose one outcome from this list and give only that: active, inactive

Please review the entries below; each comes with its answer.
Query: How did this test come out for Cc1cccc(C(=O)OC2CCCN(C)C2)c1C (stereo unspecified) ?
Response: inactive

Query: How did this test come out for `O=[N+]([O-])c1cccc(CSc2nnc(Cc3ccccc3)n2-c2ccc(F)cc2)c1` ?
Response: inactive

Query: How did this test come out for CC(C)C(NC(=O)c1ccc(C(C)(C)C)cc1)C(=O)NCC(c1ccccc1)N(C)C (stereo unspecified) ?
Response: active

Query: How did this test come out for `CC(C)c1c(O)nc(SCCN(C)C)[nH]c1=O` ?
Response: inactive

Query: How did this test come out for COc1cc(NC(=O)CSc2ncnc3sc4c(c23)CCC(C)C4)c(C(=O)O)cc1OC (stereo unspecified) ?
Response: inactive

Query: How did this test come out for `Cc1cc(Nc2ccccc2O)c2ccccc2n1` ?
Response: inactive

Query: How did this test come out for `CCOc1ccc2[nH]c3c(N4CCN(c5ccccn5)CC4)ncnc3c2c1` ?
Response: inactive

Query: How did this test come out for `CC1CCN(c2nc(Cl)nc(Nc3ccc([N+](=O)[O-])cc3)n2)CC1` ?
Response: inactive

Query: How did this test come out for COc1ccc(C(CNC(=O)CSc2ccccc2C)N(C)C)cc1 (stereo unspecified) ?
Response: inactive

Query: How did this test come out for `O=C(CC(=O)c1c(F)cccc1Cl)c1ccccc1O` ?
Response: inactive

---
Query: How did this test come out for NC(=O)C(c1cccc(Cl)c1)c1ncc(C(F)(F)F)cc1Cl (stereo unspecified) ?
Response: inactive

* * *

biological target: Short transient receptor potential channel 4 (Mus musculus) (UniProt Q9QUQ5); experiment: blockers of DAMGO-evoked TRPC4 calcium flux – cell-based, Fluo4, HEK293 TRPC4beta/mu-opioid, confirmation (AID 2636); details: at 10 µM; stronger effect = higher value
Calls of active or inactive are those of the source.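 Rule for the calls: active = calcium signal cut by more than 3 SD below the full-agonist control yet still positive, in both repeats and the earlier primary screen; inactive = the rest.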
VALUE TYPE: inhibition

Illustrative cases are given below, each with its answer.
Query: Look at this compound and give its reported inhibition. O=C(c1sc2ccccc2c1Cl)N(Cc1ccccc1)C1CCS(=O)(=O)C1 (stereo not drawn)
Response: inactive

Query: Look at this compound and give its reported inhibition. `Brc1ccccc1CN1CCN(Cc2c[nH]c3ccccc23)CC1`
Response: 78% (active)

Query: Look at this compound and give its reported inhibition. `CCc1nc2ccccc2n1Cc1ccc(F)cc1`
Response: inactive

Query: Look at this compound and give its reported inhibition. `O=C(NCCc1cnc[nH]1)c1ccc(-c2ccccc2)cc1`
Response: inactive

Query: Look at this compound and give its reported inhibition. CN(C)c1ccc(C(CNC(=O)Cc2cccc3ccccc23)N(C)C)cc1 (stereo not drawn)
Response: inactive

Query: Look at this compound and give its reported inhibition. `COc1cc(C(F)(F)F)nc2c(Br)c(C(C)(C)C)nn12`
Response: 92% (active)

Now consider a different compound.
Query: Look at this compound and give its reported inhibition. `CN1CCN(NC(=O)Nc2cc(Cl)cc(Cl)c2)CC1`
Response: inactive
